- Test system: Streptococcus sp.
- PROTOCOL DESCRIPTION: in vitro antibacterial evaluation, MIC by broth dilution
- Type: cell-based
- CONDITION SUMMARY: broth dilution, 18 hours at 35° C.
The following compounds are listed with their measured MIC Streptococcus agalactiae (GC 4564) values.
ATTRIBUTE MEASURED: MIC Streptococcus agalactiae (GC 4564)

* CC(c1ccccc1)C1NC(=O)CNC(=O)C(CO)NC(=O)C(C(O)C2CNC(=N)N2C2OC(CO)C(O)C(O)C2O)NC(=O)C(C(O)C2CNC(=N)N2)NC(=O)C(Cc2ccc(OC3OC(CO)C(OC4OC5COC(c6ccccc6)OC5C(O)C4O)C(O)C3O)c(I)c2)NC1=O (stereo not shown) | >64 µg/mL
* CC(c1ccccc1)C1NC(=O)CNC(=O)C(CO)NC(=O)C(C(O)C2CNC(=NCc3ccccc3)N2C2OC(CO)C(O)C(O)C2O)NC(=O)C(C(O)C2CNC(=N)N2)NC(=O)C(Cc2ccc(OC3OC(CO)C(OC4OC5COC6(OC5C(O)C4O)C4CC5CC(C4)CC6C5)C(O)C3O)cc2)NC1=O (stereo not shown) | 0.25 to 2 µg/mL
* CC(C1CCCCC1)C1NC(=O)CNC(=O)C(CO)NC(=O)C(C(O)C2CNC(=N)N2C2OC(CO)C(O)C(O)C2O)NC(=O)C(C(O)C2CNC(=N)N2)NC(=O)C(Cc2ccc(OC3OC(CO)C(OC4OC5COC6(OC5C(O)C4O)C4CC5CC(C4)CC6C5)C(O)C3O)cc2)NC1=O (stereo not shown) | <0.12 µg/mL
* CC(c1ccccc1)C1NC(=O)CNC(=O)C(CO)NC(=O)C(C(O)C2CNC(=N)N2C2OC(CO)C(O)C(O)C2O)NC(=O)C(C(O)C2CNC(=N)N2)NC(=O)C(Cc2ccc(OC3OC(CO)C(OC4OC(CO)C(OCC=C(c5ccccc5)c5ccccc5)C(O)C4O)C(O)C3O)cc2)NC1=O (stereo not shown) [Example 241a] | <0.06 µg/mL
* N=C1NCC(C(O)C2NC(=O)C(Cc3ccc(OC4OC(CO)C(OC5OC6COC(c7ccccc7)OC6C(O)C5O)C(O)C4O)cc3)NC(=O)C(CC3CCCCC3)NC(=O)CNC(=O)C(CO)NC(=O)C(C(O)C3CNC(=N)N3C3OC(CO)C(O)C(O)C3O)NC2=O)N1 (stereo not shown) | <0.12 µg/mL
* CC(c1ccccc1)C1NC(=O)CNC(=O)C(CO)NC(=O)C(C(O)C2CNC(=N)N2C2OC(CO)C(O)C(O)C2O)NC(=O)C(C(O)C2CNC(=N)N2)NC(=O)C(Cc2ccc(OC3OC(CO)C(OC4OC(COCc5ccc(OCc6ccccc6)cc5)C(O)C(O)C4O)C(O)C3O)cc2)NC1=O (stereo not shown) | <0.06 µg/mL
* CC(c1ccccc1)C1NC(=O)CNC(=O)C(CO)NC(=O)C(C(O)C2CN(Cc3ccccc3)C(=N)N2C2OC(CO)C(O)C(O)C2O)NC(=O)C(C(O)C2CNC(=N)N2)NC(=O)C(Cc2ccc(OC3OC(CO)C(OC4OC(CO)C(O)C(O)C4O)C(O)C3O)cc2)NC1=O (stereo not shown) | >128 µg/mL

---

The following compounds are listed with their measured MIC Staphylococcus aureus (GC 3051) values.
- Tested on: Staphylococcus sp.
- PROTOCOL DESCRIPTION: in vitro antibacterial evaluation, MIC by broth dilution
- Assay type: cell-based
- CONDITION SUMMARY: broth dilution, 18 hours at 35° C.; strain GC 3051
- Excerpt: Methods for in vitro Antibacterial Evaluation (Table 1) […]
ATTRIBUTE MEASURED: MIC Staphylococcus aureus (GC 3051) (µg/mL)

- CC(c1ccccc1)C1NC(=O)CNC(=O)C(CO)NC(=O)C(C(O)C2CNC(=N)N2C2OC(CO)C(O)C(O)C2O)NC(=O)C(C(O)C2CNC(=N)N2)NC(=O)C(Cc2ccc(OC3OC(CO)C(OC4OC5COC(CC67CC8CC(CC(C8)C6)C7)OC5C(O)C4O)C(O)C3O)cc2)NC1=O (stereo not drawn) [Example 129]: 2
- COc1ccc2cc(COC3C(CO)OC(OC4C(CO)OC(Oc5ccc(CC6NC(=O)C(C(C)c7ccccc7)NC(=O)CNC(=O)C(CO)NC(=O)C(CC7CNC(=N)N7C7OC(CO)C(O)C(O)C7O)NC(=O)C(CC7CNC(=N)N7)NC6=O)cc5)C(O)C4O)C(O)C3O)ccc2c1 (stereo not drawn) [Example 245a]: 2

---

- System: Streptococcus sp.
- PROTOCOL DESCRIPTION: in vitro antibacterial evaluation, MIC by broth dilution
- Assay type: cell-based
- CONDITION SUMMARY: broth dilution, 18 hours at 35° C.; strain GC 4563
ATTRIBUTE MEASURED: MIC Streptococcus pyogenes (GC 4563)

• CN=C1N(C)CC(CC2NC(=O)C(Cc3ccc(OC4OC(CO)C(OC5OC(CO)C(O)C(O)C5O)C(O)C4O)cc3)NC(=O)C(C(C)c3ccccc3)NC(=O)CNC(=O)C(CO)NC(=O)C(CC3CN(C)C(=NC)N3C3OC(CO)C(O)C(O)C3O)NC2=O)N1C (stereo not drawn) = >128 µg/mL
• CC(c1ccccc1)C1NC(=O)CNC(=O)C(CO)NC(=O)C(CC2CN(Cc3ccccc3)C(=NCc3ccccc3)N2C2OC(CO)C(O)C(O)C2O)NC(=O)C(CC2CN(Cc3ccccc3)C(=NCc3ccccc3)N2Cc2ccccc2)NC(=O)C(Cc2ccc(OC3OC(CO)C(OC4OC(CO)C(O)C(O)C4O)C(O)C3O)cc2)NC1=O (stereo not drawn) = >128 µg/mL
• N=C1NCC(C(O)C2NC(=O)C(Cc3ccc(OC4OC(CO)C(OC5OC6COC7(OC6C(O)C5O)C5CC6CC(C5)CC7C6)C(O)C4O)cc3)NC(=O)C(CC3CCCCC3)NC(=O)CNC(=O)C(CO)NC(=O)C(C(O)C3CNC(=N)N3C3OC(CO)C(O)C(O)C3O)NC2=O)N1 (stereo not drawn) = <0.03 µg/mL
• CC(c1ccccc1)C1NC(=O)CNC(=O)C(CO)NC(=O)C(C(O)C2CNC(=N)N2C2OC(CO)C(O)C(O)C2O)NC(=O)C(C(O)C2CNC(=N)N2)NC(=O)C(Cc2ccc(OC3OC(CO)C(OC4OC5COC(c6ccsc6)OC5C(O)C4O)C(O)C3O)cc2)NC1=O (stereo not drawn) = <0.5 µg/mL
• CC(c1ccccc1)C1NC(=O)CNC(=O)C(CO)NC(=O)C(CC2CNC(=N)N2C2OC(CO)C(O)C(O)C2O)NC(=O)C(CC2CNC(=N)N2)NC(=O)C(Cc2ccc(OC3OC(CO)C(OC4OC(CO)C(O)C(O)C4OCc4ccc(OCc5ccccc5)cc4)C(O)C3O)cc2)NC1=O (stereo not drawn) [Example 246c] = >128 µg/mL
• CC(c1ccccc1)C1NC(=O)CNC(=O)C(CO)NC(=O)C(C(O)C2CN(Cc3ccc(-c4ccccc4)cc3)C(=N)N2C2OC(CO)C(O)C(O)C2O)NC(=O)C(C(O)C2CNC(=N)N2)NC(=O)C(Cc2ccc(OC3OC(CO)C(OC4OC(CO)C(O)C(O)C4O)C(O)C3O)cc2)NC1=O (stereo not drawn) [Example 66a] = >128 µg/mL

---

- System: Enterococcus sp.
- PROTOCOL DESCRIPTION: in vitro antibacterial evaluation, MIC by broth dilution
- Format: cell-based
- CONDITION SUMMARY: strain GC 2242; broth dilution, 18 hours at 35° C.
Numbered stars: 1 amine (or outer) side, 2 acyl side, 3 side chain; on linkers, the order of the positions; unused ones are H or OH. Square brackets hold non-standard residues; d marks the D form. Peptide text beside a SMILES is read from it. ξ: configuration not given here. X1 = N=C1NCC(C(O)C(N[*:1])C(=O)[*:2])N1C1OC(CO)C(O)C(O)C1O; ξEnduracididine(βξ-OH,4'ξ) = N=C1NCC(C(O)C(N)C(=O)O)N1; ξCha(3ξ-Me) = CC(C1CCCCC1)C(N)C(=O)O; Cha = N[CH](CC1CCCCC1)C(=O)O
The following molecules are listed with their measured MIC Enterococcus faecalis (GC 2242) values.
ATTRIBUTE MEASURED: MIC Enterococcus faecalis (GC 2242) (µg/mL)

• CC(C1CCCCC1)C1NC(=O)CNC(=O)C(CO)NC(=O)C(C(O)C2CNC(=N)N2C2OC(CO)C(O)C(O)C2O)NC(=O)C(C(O)C2CNC(=N)N2)NC(=O)C(CC2CCCCC2)NC1=O (stereo not drawn) [Example 53] (cyclo(G[ξCha(3ξ-Me)][Cha][ξEnduracididine(βξ-OH,4'ξ)][X1]S); configuration not given here) = 8
• CSc1ccc(C2OCC3OC(OC4C(CO)OC(Oc5ccc(CC6NC(=O)C(C(C)c7ccccc7)NC(=O)CNC(=O)C(CO)NC(=O)C(C(O)C7CNC(=N)N7C7OC(CO)C(O)C(O)C7O)NC(=O)C(C(O)C7CNC(=N)N7)NC6=O)cc5)C(O)C4O)C(O)C(O)C3O2)cc1[N+](=O)[O-] (stereo not shown) [Example 168] = 2
• CC(c1ccccc1)C1NC(=O)CNC(=O)C(CO)NC(=O)C(C(O)C2CNC(=N)N2C2OC(CO)C(O)C(O)C2O)NC(=O)C(C(O)C2CNC(=N)N2)NC(=O)C(Cc2ccc3oc(SCC(=O)c4ccccc4)nc3c2)NC1=O (stereo not shown) [Example 48] = 64
• CC(c1ccccc1)C1NC(=O)CNC(=O)C(CO)NC(=O)C(C(O)C2CNC(=N)N2C2OC(CO)C(O)C(O)C2O)NC(=O)C(C(O)C2CNC(=N)N2)NC(=O)C(Cc2ccc(OC3OC(CO)C(OC4OC5COC(c6ccc(-c7ccsc7)cc6)OC5C(O)C4O)C(O)C3O)cc2)NC1=O (stereo not shown) [Example 164] = 4
• CCOc1cc(C2OCC3OC(OC4C(CO)OC(Oc5ccc(CC6NC(=O)C(C(C)c7ccccc7)NC(=O)CNC(=O)C(CO)NC(=O)C(C(O)C7CNC(=N)N7C7OC(CO)C(O)C(O)C7O)NC(=O)C(C(O)C7CNC(=N)N7)NC6=O)cc5)C(O)C4O)C(O)C(O)C3O2)ccc1[N+](=O)[O-] (stereo not shown) [Example 167] = 32
• CC(C)=CCOc1cccc(C2OCC3OC(OC4C(CO)OC(Oc5ccc(CC6NC(=O)C(C(C)c7ccccc7)NC(=O)CNC(=O)C(CO)NC(=O)C(C(O)C7CNC(=N)N7C7OC(CO)C(O)C(O)C7O)NC(=O)C(C(O)C7CNC(=N)N7)NC6=O)cc5)C(O)C4O)C(O)C(O)C3O2)c1 (stereo not shown) [Example 165] = 16
• COc1ccc(Oc2cccc(C3OCC4OC(OC5C(CO)OC(Oc6ccc(CC7NC(=O)C(C(C)c8ccccc8)NC(=O)CNC(=O)C(CO)NC(=O)C(C(O)C8CNC(=N)N8C8OC(CO)C(O)C(O)C8O)NC(=O)C(C(O)C8CNC(=N)N8)NC7=O)cc6)C(O)C5O)C(O)C(O)C4O3)c2)cc1 (stereo not shown) [Example 180] = 4
• COc1cc(OC)cc(C2OCC3OC(OC4C(CO)OC(Oc5ccc(CC6NC(=O)C(C(C)c7ccccc7)NC(=O)CNC(=O)C(CO)NC(=O)C(C(O)C7CNC(=N)N7C7OC(CO)C(O)C(O)C7O)NC(=O)C(C(O)C7CNC(=N)N7)NC6=O)cc5)C(O)C4O)C(O)C(O)C3O2)c1 (stereo not shown) [Example 150] = 4
